measurement target: recombinant human plasminogen activator inhibitor-1 (PAI-1) (Homo sapiens, UniProt P05121)
Construct: purchased Molecular Innovations, Royal Oak, Mich
Sequence (P05121 24-402): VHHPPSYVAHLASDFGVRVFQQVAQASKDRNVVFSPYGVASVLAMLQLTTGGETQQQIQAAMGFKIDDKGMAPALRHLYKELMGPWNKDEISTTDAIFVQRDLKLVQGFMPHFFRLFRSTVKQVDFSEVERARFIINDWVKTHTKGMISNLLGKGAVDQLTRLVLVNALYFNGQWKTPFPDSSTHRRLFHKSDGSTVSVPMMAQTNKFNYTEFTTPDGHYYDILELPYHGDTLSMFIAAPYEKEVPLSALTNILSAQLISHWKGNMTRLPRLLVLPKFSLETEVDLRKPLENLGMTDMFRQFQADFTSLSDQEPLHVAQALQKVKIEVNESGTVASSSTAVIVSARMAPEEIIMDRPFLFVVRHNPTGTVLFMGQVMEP
protocol description: Screening for PAI-1 inhibition (chromogenic residual tPA activity, Spectrozyme-tPA)
Assay type: biochemical
measurement setup: 25 μM test compound; 140 nM PAI-1, 70 nM tPA, pH 6.6
Method: Screening for PAI-1 inhibition. Test compounds are dissolved in DMSO at a final concentration of 10 mM, then diluted 100× in physiologic buffer. […] Following the second incubation, Spectrozyme-tPA (American Diagnostica, Greenwich, Conn.), a chromogenic substrate for tPA, is added and absorbance read at 405 nm at 0 and 60 minutes. […]
experimental endpoint: inhibition at 25 µM (%)

Here is how some compounds turned out for inhibition at 25 µM.
{"query smiles": "O=C(O)c1ccc(OCCCO/N=C/c2cc3ccccc3n2Cc2ccccc2)c(-c2ccc(C(F)(F)F)cc2)c1", "measurement target": "recombinant human plasminogen activator inhibitor-1 (PAI-1) (Homo sapiens, UniProt P05121)", "units symbol": "%", "inhibition at 25 µM": 100}
{"query smiles": "Cc1c(/C=N/OCCCOc2ccc(CC(=O)O)cc2)c2ccccc2n1C", "measurement target": "recombinant human plasminogen activator inhibitor-1 (PAI-1) (Homo sapiens, UniProt P05121)", "units symbol": "%", "inhibition at 25 µM": 54}

(A) O=C(O)c1ccc(OCCCO/N=C/c2cn(Cc3ccccc3)c3ccccc23)c(-c2ccc(C(F)(F)F)cc2)c1
(B) Cc1c(/C=N/OCc2ccc(C(=O)O)c(Br)c2)c2ccccc2n1C
Between the two listed entries A and B , which has its inhibition at 25 µM at the higher number? Could you answer with the label of the item you picked?
A
